- Tested on: microorganisms
- TEST NAME: Morphology, biofilm and growth disruption by peptides (Table 5)
- Assay type: cell-based
- Parameters: key: A: Peptide aggregates; B: Less hyphal formation; Clumps; Diffuse clumps and small polyps; F: Diffuse growth; H: Thin; I: Growth inhibition; Microcolony formation; Rippled; Small polyps; Thick; W: Halo formation on top, microlonies on bottom
- RECORDED CONDITIONS: B. subtilis
- Source text: In certain embodiments peptides that induce alterations in phenotype or other biological activities can also be used as antimicrobial effector moieties.
MEASUREMENT TYPE: Organism, effect

SUBSTANCE | Organism, effect
PF-175 (RRRPAGQRPEKASQAMIAA; Peptide with targeting and/or antimicrobial activity) | B. subtilis (D)
PF-301 (GIVLIGLKLIPLLANVLN; Peptide with targeting and/or antimicrobial activity) | B. subtilis (C)
PF-296 (GAFGMPSIKTNTICGEKGKFISACDAWLSNLK; Peptide with targeting and/or antimicrobial activity) | B. subtilis (C)
PF-297 (ISKGIDDIVYVINKILSIGNIFKIIKRK; Peptide with targeting and/or antimicrobial activity) | B. subtilis (C)
MKRRRCNWCGKLFYLEEKSKEAYCCKECRKKAKKVKK [PF-307] | B. subtilis (H)
PF-335 (AAYPIEDWSDWYEDFFIMLSNI; Peptide with targeting and/or antimicrobial activity) | B. subtilis (C)

For PF-342 (AFSGVYKTLIVYTRRK; Peptide with targeting and/or antimicrobial activity) the substance record lists Organism, effect as B. subtilis (C)

Looking up PF-318 (MGRHLWNPSYFVATVSENTEEQIRKYINNQKKQVK; Peptide with targeting and/or antimicrobial activity) , I found its Organism, effect recorded as B. subtilis (C)

The recorded Organism, effect for entry PF-292 (SFVSTTVRLIFEESKRYKF; Peptide with targeting and/or antimicrobial activity) equals B. subtilis (C)

The substance identified as PF-005 (chain 1 MESIFKIKLMNGICRSENMNMKKKNKGEKI; chain 2 MESIFKIKLMNGICRSENMNMKKKNKGEKI; Peptide with targeting and/or antimicrobial activity) registered its Organism, effect at B. subtilis (C)

Notebook: PF-008 (chain 1 MIEIGSIAYLNGGSKKYNHILNQENR; chain 2 MIEIGSIAYLNGGSKKYNHILNQENR; Peptide with targeting and/or antimicrobial activity) , Organism, effect read as B. subtilis (D)
